Quick reference for Papp among some molecules
assay: In situ single-pass intestinal perfusion (SPIP), saponins administrated in MDQ-TS form; type: in vivo, rat; settings: male, Sprague-Dawley, rat, other: in situ single-pass intestinal perfusion, MDQ-TS form 5.0 mg·mL^−1, ileum, n = 5
Provide only the numeric value, understood in ×10⁻⁶ cm/s.

1. CC1CCC2(C(=O)OC3OC(CO)C(O)C(O)C3O)CCC3(C)C(=CCC4C5(C)CCC(O)C(C)(C(=O)O)C5CCC43C)C2C1(C)O (centres unmarked) | 23.3

What does the data say about its Papp? Entry: C[C@@H]1CC[C@]2(C(=O)O)CC[C@]3(C)C(=CC[C@@H]4[C@@]5(C)CC[C@H](O)[C@@](C)(C(=O)O)[C@@H]5CC[C@]43C)[C@@H]2[C@]1(C)O 41.7

---

Quick reference for Papp among some molecules
assay: In situ single-pass intestinal perfusion (SPIP), saponins administrated in MDQ-TS form; assay type: in vivo, rat; settings: male, Sprague-Dawley, rat, other: in situ single-pass intestinal perfusion, MDQ-TS form 1.25 mg·mL^−1, ileum, n = 5

1) CC1CCC2(C(=O)OC3OC(CO)C(O)C(O)C3O)CCC3(C)C(=CCC4C5(C)CCC(O)C(C)(C(=O)O)C5CCC43C)C2C1(C)O (centres unmarked) [C2, ilexsaponin A1] | 23.3 ×10⁻⁶ cm/s

What does the data say about its Papp? Entry: C[C@@H]1CC[C@]2(C(=O)O)CC[C@]3(C)C(=CC[C@@H]4[C@@]5(C)CC[C@H](O)[C@@](C)(C(=O)O)[C@@H]5CC[C@]43C)[C@@H]2[C@]1(C)O [C1, ilexgenin A] 25 ×10⁻⁶ cm/s

---

test system: rat duodenum; assay: SPIP of MDQ-TS with or without verapamil (P-gp inhibitor); type: in vivo; conditions: MDQ-TS 2.5 mg/mL, verapamil 200 μmol·L^−1
observed_property: Ka increase in comparison with non-Verapamil added group

1) CC1CCC2(C(=O)OC3OC(CO)C(O)C(O)C3O)CCC3(C)C(=CCC4C5(C)CCC(O)C(C)(C(=O)O)C5CCC43C)C2C1(C)O (stereo not shown) | ~4.2 fold
2) C[C@@H]1CC[C@]2(C(=O)O)CC[C@]3(C)C(=CC[C@@H]4[C@@]5(C)CC[C@H](O)[C@@](C)(C(=O)O)[C@@H]5CC[C@]43C)[C@@H]2[C@]1(C)O | about 1.5 fold
3) C[C@H]1CC[C@]2(C(=O)O)CC[C@]3(C)C(=CC[C@@H]4[C@@]5(C)CC[C@H](O[C@@H]6OC[C@@H](O)[C@H](O)[C@H]6O[C@@H]6O[C@H](CO)[C@@H](O)[C@H](O)[C@H]6O)C(C)(C)[C@@H]5CC[C@]43C)[C@@H]2[C@]1(C)O | ~1.2 fold
4) C[C@@H]1O[C@@H](O[C@H]2[C@H](O[C@H]3[C@H](O[C@H]4CC[C@]5(C)[C@H]6CC=C7[C@H]8[C@](C(=O)O)(CC[C@H](C)[C@@]8(C)O)CC[C@@]7(C)[C@]6(C)CC[C@H]5C4(C)C)OC[C@@H](O)[C@@H]3O)O[C@H](CO)[C@@H](O)[C@@H]2O)[C@H](O)[C@H](O)[C@H]1O | about 1.5 fold

---

test system: rat small intestine (duodenum, jejunum, ileum); experiment: In situ single-pass intestinal perfusion (SPIP), saponins administrated in MDQ-TS form; type: in vivo; conditions: MDQ-TS form 2.5 mg·mL^−1, jejunum, n = 5
observed_property: Ka

Reference set, count: 4
1. CC1CCC2(C(=O)OC3OC(CO)C(O)C(O)C3O)CCC3(C)C(=CCC4C5(C)CCC(O)C(C)(C(=O)O)C5CCC43C)C2C1(C)O (centres unmarked) | 0.68 ± 0.18 ×10^−2 min^−1
2. C[C@@H]1O[C@@H](O[C@H]2[C@H](O[C@H]3[C@H](O[C@H]4CC[C@]5(C)[C@H]6CC=C7[C@H]8[C@](C(=O)O[C@@H]9O[C@H](CO)[C@@H](O)[C@H](O)[C@H]9O)(CC[C@H](C)[C@@]8(C)O)CC[C@@]7(C)[C@]6(C)CC[C@H]5C4(C)C)OC[C@@H](O)[C@@H]3O)O[C@H](CO)[C@@H](O)[C@@H]2O)[C@H](O)[C@H](O)[C@H]1O [DC2, ilexoside O] | 1.23 ± 0.46 ×10^−2 min^−1
3. C[C@@H]1O[C@@H](O[C@H]2[C@H](O[C@H]3[C@H](O[C@H]4CC[C@]5(C)[C@H]6CC=C7[C@H]8[C@](C(=O)O)(CC[C@H](C)[C@@]8(C)O)CC[C@@]7(C)[C@]6(C)CC[C@H]5C4(C)C)OC[C@@H](O)[C@@H]3O)O[C@H](CO)[C@@H](O)[C@@H]2O)[C@H](O)[C@H](O)[C@H]1O | 3.19 ± 0.56 ×10^−2 min^−1
4. C[C@@H]1CC[C@]2(C(=O)O)CC[C@]3(C)C(=CC[C@@H]4[C@@]5(C)CC[C@H](O)[C@@](C)(C(=O)O)[C@@H]5CC[C@]43C)[C@@H]2[C@]1(C)O | 2.23 ± 0.39 ×10^−2 min^−1

API: the following record is the query input.
What does the data say about its Ka? Entry: C[C@H]1CC[C@]2(C(=O)O)CC[C@]3(C)C(=CC[C@@H]4[C@@]5(C)CC[C@H](O[C@@H]6OC[C@@H](O)[C@H](O)[C@H]6O[C@@H]6O[C@H](CO)[C@@H](O)[C@H](O)[C@H]6O)C(C)(C)[C@@H]5CC[C@]43C)[C@@H]2[C@]1(C)O 3.82 ± 0.49 ×10^−2 min^−1

---

system: rat small intestine (duodenum, jejunum, ileum); test: In situ single-pass intestinal perfusion (SPIP), saponins administrated in MDQ-TS form; assay type: in vivo; details: MDQ-TS form 1.25 mg·mL^−1, ileum, n = 5
Quick reference for Ka among some molecules

Reference set, count: 3
1) C[C@@H]1CC[C@]2(C(=O)O)CC[C@]3(C)C(=CC[C@@H]4[C@@]5(C)CC[C@H](O)[C@@](C)(C(=O)O)[C@@H]5CC[C@]43C)[C@@H]2[C@]1(C)O [C1, ilexgenin A] | 0.89 ± 0.08 ×10^−2 min^−1
2) CC1CCC2(C(=O)OC3OC(CO)C(O)C(O)C3O)CCC3(C)C(=CCC4C5(C)CCC(O)C(C)(C(=O)O)C5CCC43C)C2C1(C)O (stereo not shown) [C2, ilexsaponin A1] | 1.61 ± 0.37 ×10^−2 min^−1
3) C[C@H]1CC[C@]2(C(=O)O)CC[C@]3(C)C(=CC[C@@H]4[C@@]5(C)CC[C@H](O[C@@H]6OC[C@@H](O)[C@H](O)[C@H]6O[C@@H]6O[C@H](CO)[C@@H](O)[C@H](O)[C@H]6O)C(C)(C)[C@@H]5CC[C@]43C)[C@@H]2[C@]1(C)O [C3, ilexsaponin B1] | 1.04 ± 0.11 ×10^−2 min^−1

API: the following record is the query input.
What does the data say about its Ka? Entry: C[C@@H]1O[C@@H](O[C@H]2[C@H](O[C@H]3[C@H](O[C@H]4CC[C@]5(C)[C@H]6CC=C7[C@H]8[C@](C(=O)O)(CC[C@H](C)[C@@]8(C)O)CC[C@@]7(C)[C@]6(C)CC[C@H]5C4(C)C)OC[C@@H](O)[C@@H]3O)O[C@H](CO)[C@@H](O)[C@@H]2O)[C@H](O)[C@H](O)[C@H]1O [C4, ilexsaponin B2] 0.83 ± 0.28 ×10^−2 min^−1

---

system: rat small intestine (duodenum, jejunum, ileum); assay: In situ single-pass intestinal perfusion (SPIP), saponins administrated in MDQ-TS form; assay type: in vivo; conditions: MDQ-TS form 5.0 mg·mL^−1, ileum, n = 5
observed_property: Ka

1. C[C@@H]1O[C@@H](O[C@H]2[C@H](O[C@H]3[C@H](O[C@H]4CC[C@]5(C)[C@H]6CC=C7[C@H]8[C@](C(=O)O)(CC[C@H](C)[C@@]8(C)O)CC[C@@]7(C)[C@]6(C)CC[C@H]5C4(C)C)OC[C@@H](O)[C@@H]3O)O[C@H](CO)[C@@H](O)[C@@H]2O)[C@H](O)[C@H](O)[C@H]1O | 1.52 ± 0.92 ×10^−2 min^−1
2. C[C@@H]1CC[C@]2(C(=O)O)CC[C@]3(C)C(=CC[C@@H]4[C@@]5(C)CC[C@H](O)[C@@](C)(C(=O)O)[C@@H]5CC[C@]43C)[C@@H]2[C@]1(C)O | 1.48 ± 0.76 ×10^−2 min^−1
3. CC1CCC2(C(=O)OC3OC(CO)C(O)C(O)C3O)CCC3(C)C(=CCC4C5(C)CCC(O)C(C)(C(=O)O)C5CCC43C)C2C1(C)O (centres unmarked) | 0.85 ± 0.27 ×10^−2 min^−1
4. C[C@@H]1O[C@@H](O[C@H]2[C@H](O[C@H]3[C@H](O[C@H]4CC[C@]5(C)[C@H]6CC=C7[C@H]8[C@](C(=O)O[C@@H]9O[C@H](CO)[C@@H](O)[C@H](O)[C@H]9O)(CC[C@H](C)[C@@]8(C)O)CC[C@@]7(C)[C@]6(C)CC[C@H]5C4(C)C)OC[C@@H](O)[C@@H]3O)O[C@H](CO)[C@@H](O)[C@@H]2O)[C@H](O)[C@H](O)[C@H]1O [DC2, ilexoside O] | 1.14 ± 0.45 ×10^−2 min^−1

API: the following record is the query input.
What does the data say about its Ka? Entry: C[C@H]1CC[C@]2(C(=O)O)CC[C@]3(C)C(=CC[C@@H]4[C@@]5(C)CC[C@H](O[C@@H]6OC[C@@H](O)[C@H](O)[C@H]6O[C@@H]6O[C@H](CO)[C@@H](O)[C@H](O)[C@H]6O)C(C)(C)[C@@H]5CC[C@]43C)[C@@H]2[C@]1(C)O 1.66 ± 0.95 ×10^−2 min^−1

Reference source: paper PMC6150237
